value.type: melting point (°C)

molecule: N#CO
value.type: melting point
unit.abbreviation: °C
reported.value: -86
--
molecule: CC(=O)OCC(=O)C1(O)C(C)CC2C3CCC4=CC(=O)C=CC4(C)C3(F)C(O)CC21C (stereo unspecified)
value.type: melting point
unit.abbreviation: °C
reported.value: 263
--
molecule: CC(C)(C(=O)N1C(=O)C=CC1(C)C)C(=O)N1C(=O)C=CC1(C)C
value.type: melting point
unit.abbreviation: °C
reported.value: 128
--
molecule: N#Cc1ccc(Cl)c(C(F)(F)F)c1
value.type: melting point
unit.abbreviation: °C
reported.value: 66
--
molecule: Cc1ccc(NC(=O)CCC2C(=O)C3(C)CCC2C3(C)C)cc1 (stereo unspecified)
value.type: melting point
unit.abbreviation: °C
reported.value: 114
--
molecule: O=C1CCCN1CCO
value.type: melting point
unit.abbreviation: °C
reported.value: 20
--
molecule: CC12CCC(C1(C)C)C(CC(Br)Cc1ccccc1)(C1(CC(Br)Cc3ccccc3)C(=O)C3(C)CCC1C3(C)C)C2=O (stereo unspecified)
value.type: melting point
unit.abbreviation: °C
reported.value: 215
--
molecule: CCOCCOC(=O)C(C)Oc1ccc(Oc2ncc(C(F)(F)F)cc2Cl)cc1 (stereo unspecified)
value.type: melting point
unit.abbreviation: °C
reported.value: 60
